B1: PWWP2B (parent)
chain: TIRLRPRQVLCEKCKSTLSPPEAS

- Variants of: B1
- assay protocol: protein stability index of a GFP-peptide fusion (GPS, HEK-293T) (PSI 1-6); higher = more stable;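 also: lentivirally expressed fusions sorted by FACS into six bins by GFP to DsRed ratio, PSI derived from sequencing read proportions per bin multiplied by bin number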
- reported conditions: c terminus: a fixed tail appended
quantity kind: protein stability index

{"primary sequence": "TIRLRPRQVLCEVCKSTLSPPEAS", "reading": 2.71}
{"primary sequence": "TNRLRPRQVLCEKCKSTLSPPEAS", "reading": 4.05}
{"primary sequence": "TIRLRPRQVLCEKCGSTLSPPEAS", "reading": 2.83}
{"primary sequence": "TIRLRPRQDLCEKCKSTLSPPEAS", "reading": 3.19}
{"primary sequence": "TIRLRPRNVLCEKCKSTLSPPEAS", "reading": 2.97}
{"primary sequence": "TIRLRPRQVACEKCKSTLSPPEAS", "reading": 3.44}
{"primary sequence": "TIRLRPRQVLCEKCKSTLSPPLAS", "reading": 2.85}
{"primary sequence": "TIRLRPRQSLCEKCKSTLSPPEAS", "reading": 3.16}
{"primary sequence": "TIRLRPRQVLCEKCKHTLSPPEAS", "reading": 2.76}
{"primary sequence": "TIRLRNRQVLCEKCKSTLSPPEAS", "reading": 2.53}
{"primary sequence": "TIRLRPRQVLCEKLKSTLSPPEAS", "reading": 3.13}
